List of melting point values.
experimental_readout: melting point

- input_smiles: "Cc1c(CCl)cccc1[N+](=O)[O-]"
  observed_value: "42 to 47 °C"
- input_smiles: "NC(=S)C1=Cc2ccccc2OC1"
  observed_value: "172 to 174 °C"
- input_smiles: "Clc1cc2ccccc2c2ccccc12"
  observed_value: "46 to 50 °C"

* * *

- input_smiles: "O=C(OCc1ccc(Cl)cc1)c1cnc(Cl)nc1C(F)(F)F"
  melting point: "69 to 71 °C"
- input_smiles: "Cc1c(Cl)cc(F)cc1S(N)(=O)=O"
  melting point: "118 to 120 °C"
- input_smiles: "NCCCNCCO"
  melting point: "15 to 19 °C"

* * *

Criterion: melting point strictly less than 90 °C. Met: True. Not met: False.

- compound: "CC(Oc1ccc(Oc2cnc3cc(Cl)ccc3n2)cc1)C(=O)OCC1CCCO1 (stereo unspecified)"
  group: "True"
- compound: "COc1ccc(OC)c2c(=O)c(=O)c12"
  group: "False"
- compound: "CC1C(=CC(=O)OCCN(C)C)CCC2C1C(=O)CC1C(C)(C)C(O)CCC21C (stereo unspecified)"
  group: "False"
- compound: "Oc1c(F)cccc1Cl"
  group: "True"
- compound: "COc1cccc(OC)c1"
  group: "True"
- compound: "CCCC(=O)OC(=O)CCC"
  group: "True"
- compound: "N#C/C(=N/Nc1cc(Cl)c(Cl)cc1Cl)c1nc2ccccc2c(=O)[nH]1"
  group: "False"
- compound: "CC=C(C)Cl"
  group: "True"
- compound: "CC=CC(=O)OC1CC2OC3C=C(C)C(=O)CC3(C)C1(C)C21CO1 (stereo unspecified)"
  group: "False"
- compound: "COc1cc2nc(Cl)nc(Cl)c2cc1OC"
  group: "False"
- compound: "CC(C)C1CCCCC1=O (stereo unspecified)"
  group: "True"
- compound: "COc1cc(C(=O)O)cc(OCc2ccccc2)c1OC"
  group: "False"
- compound: "O=C1NC(=O)C(=NNc2ccc(Cl)cc2)C(=O)N1"
  group: "False"
- compound: "O=C(CC(=O)c1ccccc1)c1ccccc1"
  group: "True"
- compound: "CSc1ccc2c(c1)N(CCC1CCCCN1C)c1ccccc1S2 (stereo unspecified)"
  group: "True"

* * *

Items are presented alongside their recorded melting point.

- compound: "O=S(=O)(c1ccc(Cl)cc1)C(F)(F)C(F)Cl (stereo not given)"
  melting point: "55 to 57 °C"
- compound: "COc1cccc2cc(C(=O)C3CC(C)(c4c(C)cc(C)cc4C)C3)oc12 (stereo not given)"
  melting point: "96 to 97 °C"
- compound: "O=C(C=NO)Nc1ccc(Cl)cc1Cl"
  melting point: "198 to 201 °C"
- compound: "O=C1Cc2cccc(Br)c21"
  melting point: "81.5 to 83 °C"
- compound: "Cc1oc(-c2ccc(Cl)cc2)cc1C(=O)Cl"
  melting point: "122 to 124 °C"
- compound: "COCc1cc(O)nc(S)n1"
  melting point: "220 to 223 °C"
- compound: "COc1ccc(C=CC(=O)O)c(Cl)c1OC"
  melting point: "217 to 218 °C"
- compound: "O=C(O)CC(Br)C(=O)O (racemic)"
  melting point: "160 to 166 °C"
- compound: "CC(=O)c1ccc(C=O)s1"
  melting point: "105 to 106 °C"
- compound: "COc1ccccc1N1CCN(C(=O)c2ccc(N)cc2)CC1"
  melting point: "212 to 214 °C"
- compound: "CC(=NO)c1ccc(F)cc1"
  melting point: "72 to 74 °C"
- compound: "O=Cc1ccc(-c2ccsc2)cc1"
  melting point: "101 to 102 °C"
- compound: "CC(=O)c1ccc2ccc3cccc4ccc1c2c34"
  melting point: "88 °C"
- compound: "CC(=O)Nc1ccsc1C(=O)O"
  melting point: "200 to 202 °C"
- compound: "Clc1cc2c(cc1Cl)-c1cc(Cl)c(Cl)cc1-2"
  melting point: "237 to 240 °C"

* * *

Known melting point of a selection of compounds
experimental_readout: melting point

- compound: "Cc1nnc(SCc2ccccc2)n1N=Cc1ccccc1Cl"
  experimental_readout: "melting point"
  observed_value: "121 to 123 °C"
- compound: "CNC(=O)CC#N"
  experimental_readout: "melting point"
  observed_value: "82 to 84 °C"
- compound: "CSc1nc(N)nc(C2CC2)n1"
  experimental_readout: "melting point"
  observed_value: "157 to 159 °C"
- compound: "CC1(C)c2ccccc2NC1C(N)=O (centres undefined)"
  experimental_readout: "melting point"
  observed_value: "168 to 170 °C"

* * *

- compound: "C=CC(C)(CCC=C(C)C)OC(=O)C(C)C (stereo not given)"
  value_prefix: "<"
  melting point / °C: 25
- compound: "Cc1ccc(S(=O)(=O)c2ccccc2)cc1"
  value_prefix: "="
  melting point / °C: 127
- compound: "C=CC(N)CCC(=O)O (stereo not given)"
  value_prefix: "="
  melting point / °C: 209
- compound: "O=S(=O)(Cl)c1cnc(Cl)c(Br)c1"
  value_prefix: "="
  melting point / °C: 68
- compound: "O=C(O)c1nc(Cl)ccc1Cl"
  value_prefix: "="
  melting point / °C: 151
- compound: "CC(=O)CCc1ccccc1"
  value_prefix: "="
  melting point / °C: -13
- compound: "C=C(C)C(=C)C"
  value_prefix: "="
  melting point / °C: -76
- compound: "Nc1cccnc1Cl"
  value_prefix: "="
  melting point / °C: 78
- compound: "C=CC(OC(C)=O)OC(C)=O"
  value_prefix: "="
  melting point / °C: -37.6
- compound: "O=[N+]([O-])c1ccc(SCl)c([N+](=O)[O-])c1"
  value_prefix: "="
  melting point / °C: 99
- compound: "COc1cc2noc(-c3ccc(C)o3)c2cc1OC"
  value_prefix: "="
  melting point / °C: 146
- compound: "CCOP(=S)(OCC)SCn1nnc2ccccc2c1=O"
  value_prefix: "="
  melting point / °C: 53
- compound: "Nc1ccc(-c2ccc(N)c(N)c2)cc1N"
  value_prefix: "="
  melting point / °C: 176
- compound: "Brc1ccc2c(c1)Oc1ccc(Br)cc1O2"
  value_prefix: "="
  melting point / °C: 193
- compound: "CN1C(=O)CN=C(c2ccccc2F)c2cc([N+](=O)[O-])ccc21"
  value_prefix: "="
  melting point / °C: 166

* * *

- compound: "OCc1cccnc1Cl"
  melting point: "54 to 55 °C"
- compound: "O=C(O)c1snnc1-c1ccccc1"
  melting point: "144 to 145 °C"
- compound: "Cc1nccn1-c1ccccc1C(=O)O"
  melting point: "232 to 234 °C"
- compound: "COC(=O)c1ccc(-c2nc(C)no2)cc1"
  melting point: "160 to 163 °C"
- compound: "CC(C)(C)c1ccc(C2CCC3(CC2)Cc2ccc(C(=O)n4cc(CCCC(=O)O)c5ccccc54)cc2C3)cc1 (stereo unspecified)"
  melting point: "120 to 150 °C"
- compound: "CSc1ccc(I)cc1"
  melting point: "40 to 42 °C"
- compound: "Cc1ccccc1CC(NC(=O)OCC1c2ccccc2-c2ccccc21)C(=O)O (racemic)"
  melting point: "157 to 164 °C"
- compound: "CCOC(=O)c1cnn(-c2ccc(F)cc2)c1N"
  melting point: "153 to 154 °C"
- compound: "CC(C)(C)OC(=O)N1CCN(Cc2cccc(C(=O)O)c2)CC1"
  melting point: "173 to 175 °C"
- compound: "CCCCCCCCCCCCOc1ccc(C(C)=O)cc1"
  melting point: "44 to 47 °C"
- compound: "Cc1ccc(Cl)c(N)c1Cl"
  melting point: "37 to 40 °C"

* * *

- compound: "OCCN(CCO)CCCc1ccc(COc2ccccc2)cc1"
  melting point: "63 to 64 °C"
- compound: "COc1ccc(C(N)=NO)cc1"
  melting point: "119 to 121 °C"
- compound: "c1ccc(C/C(=N\\Nc2ccccc2)c2cccc3ccccc23)cc1"
  melting point: "101 to 102 °C"
- compound: "NC(=O)NC(CC(=O)O)C(=O)O (racemic)"
  melting point: "174 to 175 °C"
- compound: "NCc1ccc2sccc2c1"
  melting point: "41 to 43 °C"
- compound: "CC1CCCCN1 (stereo not drawn)"
  melting point: "-5 to -4 °C"
- compound: "Brc1cc(Br)c(Oc2c(Br)cc(Br)c(Br)c2Br)cc1Br"
  melting point: "171 to 173 °C"
- compound: "Cc1oc(-c2ccc(Cl)cc2)cc1C(=O)O"
  melting point: "231 to 232 °C"
- compound: "OCC(F)(F)C(F)(F)C(F)(F)C(F)(F)C(F)(F)C(F)(F)C(F)(F)C(F)(F)C(F)(F)F"
  melting point: "87 to 91 °C"
- compound: "CCOc1nc2ccccc2c(=O)[nH]1"
  melting point: "178 to 179 °C"
- compound: "O=C(O)CCNC(=O)OCC1c2ccccc2-c2ccccc21"
  melting point: "144 to 148 °C"
- compound: "O=[N+]([O-])c1ccc(S(=O)(=O)OCc2cccc(OS(=O)(=O)c3ccc([N+](=O)[O-])cc3)c2)cc1"
  melting point: "199 to 202 °C"
- compound: "CC(=O)OC1C2=C(C(=O)C(OC(C)=O)C3(CC3C)C2=O)C2(C)CCC(C)=C(C)C2C1O (stereo not drawn)"
  melting point: "176 to 178 °C"

The reported numbers originate from a melting point compilation (Tetko et al.).
